Study Target: Hexose transporter 1 (Plasmodium falciparum)
Protocol Description: ST_JUDE_LEISH: Cytotoxicity at 2uM final concentration against transgenic Leishmania Mexicana promastigotes LmPfHT that are glucose transport deficient and complemented with the Plasmodium falciparum hexose transporter. Activity is measured by DNA content using SYBR green in vitro
Assay type: functional
Measure Name: inhibition (%)
Write it as a number; the unit % goes unstated.

Report inhibition for CCCCCC(=O)N1CCOC(CCN2CCc3c(c4ccccc4n3C)C2)(c2ccc(Cl)c(Cl)c2)C1 (stereo not given)
7.81

Report inhibition for CN(C)C(=S)N/N=C1/C(=O)Nc2ccccc21
1.92

Report inhibition for O=C1CSc2ccc(CNC3CCN(CCc4c(Cl)cnc5ccc(Cl)cc45)CC3)nc2N1
-0.05

Report inhibition for CCCCCN1CCC(NS(=O)(=O)c2cccc(C(=O)Nc3ccc(C(F)(F)F)cc3)c2)C1 (stereo not given)
1.94

Report inhibition for N#Cc1cccc(C(=O)Nc2cccc(-c3ccc(CN4CCCC4)cc3)c2)c1
2.56

====

Study Target: Solute carrier family 2, facilitated glucose transporter member 1 (Homo sapiens)
Protocol Description: ST_JUDE_LEISH: Cytotoxicity at 2uM final concentration against transgenic Leishmania Mexicana promastigotes LmGLUT1 that are glucose transport deficient and complemented with the human glucose transporter GLUT1. Activity is measured by DNA content using SYBR green in vitro
Format: functional
Measure Name: inhibition (%)
Write it as a number; the unit % goes unstated.

Report inhibition for CC(C)C(C(=O)Nc1ccc2c(c1)OCO2)c1ccc(Cl)cc1 (centres undefined)
3.38

Report inhibition for O=C(/C=C/c1ccc(Cl)c(Cl)c1)NCCCCCN1CCC(CCNC(=O)/C=C/c2cc(C(F)(F)F)ccc2F)CC1
-4.09

Report inhibition for COc1ccc(NC(=O)[C@H](Cc2ccccc2)Nc2cc(C)nc(NCCc3ccccn3)n2)cc1
4.73

Report inhibition for O=C(Nc1ccc(CN2CCOCC2)cc1)c1ccc(-c2ccc(Cl)cc2)o1
-0.08

Report inhibition for CCCOc1cc(OCCC)cc(-c2ccc(C(=O)Nc3ccc4ccc(C)nc4c3)c(=O)[nH]2)c1
1.35

Report inhibition for CC(C)N1CCN(C(=O)c2ccc(CNCCCN3CCN(c4cccc(Cl)c4Cl)CC3)o2)CC1
-2.44

Report inhibition for COc1ccc2nccc([C@@H](O)CN3CCC(NCc4cc5cc(C)ccc5s4)CC3)c2c1
31.5

Report inhibition for COc1cc(NC(=O)Nc2cc(C)nc3ccccc23)cc(OC)c1
0.54

Report inhibition for Cc1ccc2cc(NCCCCCCCCON3C(N)=NC(N)=NC34CCCCC4)ccc2n1
8.51

====

Study Target: Hexose transporter 1 (Plasmodium falciparum) (UniProt O97467)
Protocol Description: ST_JUDE_LEISH: Cytotoxicity at 2uM final concentration against transgenic Leishmania Mexicana promastigotes LmPfHT that are glucose transport deficient and complemented with the Plasmodium falciparum hexose transporter. Activity is measured by DNA content using SYBR green in vitro
Assay type: functional
Measure Name: inhibition (%)
Write it as a number; the unit % goes unstated.

Report inhibition for CCCCCN1CCCC(NS(=O)(=O)c2ccc(C(=O)Nc3ccc(C(F)(F)F)cc3)cc2)C1 (stereo not given)
4.12

Report inhibition for COc1cc2c(cc1NC(=O)CN1CCN(C(=O)c3ccco3)CC1)oc1ccccc12
2.47

Report inhibition for Clc1ccc(OCc2ccccc2)c(-c2nc(-c3nc4ccc(Cl)cc4[nH]3)cs2)c1
2.99

Report inhibition for O=c1cc(NCCCCNCc2ccc(Br)c(Br)c2)[nH]c2ccccc12
0.5

Report inhibition for OCCN1CCN(C2Cc3ccc(F)cc3Sc3ccc(Cl)cc32)CC1 (stereo not given)
-3.09

Report inhibition for COc1ccc(OC)c(NC(=O)c2c(-c3c(F)cccc3Cl)noc2C)c1
3.64

Report inhibition for CCOc1ccc2[nH]c(C)cc(=NN=Cc3ccccc3Cl)c2c1
8.94

Report inhibition for COc1cc(Cc2cnc(N)nc2N)c2ccsc2c1OC
3.31

Report inhibition for Oc1ccc(CCNc2nc(N/N=C/C=C/c3ccc(Cl)cc3)nc(N3CCNCC3)n2)cc1
1.74

Report inhibition for CC(=O)Nc1cccc(C(=O)Nc2cccc(-c3ccc(-c4nc5cccc(C)c5[nH]4)cc3)c2)c1
1.27

Report inhibition for O=C(Nc1ccc(Cl)cc1C(=O)Nc1ccncc1)c1ccc(Cl)cc1Cl
5.88

Report inhibition for O=C(Cc1cccs1)NC(CCCN1CCC(Oc2cccc(Cl)c2)CC1)c1ccc(Cl)c(Cl)c1 (stereo not given)
-1.59

Report inhibition for CCCCCC1c2[nH]c3ccccc3c2CCN1C(=O)OCc1ccccc1 (stereo not given)
6.98

Report inhibition for Cc1ccc(NC(=O)c2cnc(N3CCN(c4ccncc4)CC3)c(Cl)c2)cc1
16.1

Report inhibition for O=C(C=Cc1ccc(Cl)c(Cl)c1)NCCCCCN1CCC(CCNC(=O)c2sc3ccccc3c2Cl)CC1
9.43

Report inhibition for CN(CCCN(C)c1cc(NC(=O)c2cccc(F)c2)ccn1)Cc1cccc(O)c1
0.99

Report inhibition for Cc1ccc2nc3c(cc(C(=O)NCCc4ccccc4)c(=N)n3CCCOC(C)C)c(=O)n2c1
0.31

Report inhibition for COCCNCc1cccc(C#Cc2cc3ncnc(Nc4ccc(OCc5cccc(F)c5)c(Cl)c4)c3s2)n1
5.8

Report inhibition for O=C(C=Cc1cccs1)N(CCCn1ccnc1)c1nc2ccc(F)cc2s1
4.09

Report inhibition for O=C(Nc1cccc(CN2CCCN(Cc3ccccc3)CC2)c1)c1ccc(-c2ccccc2)cc1
4.14

Report inhibition for CN(C)CCNC(=O)NC1CN(c2ncnc3cc(-c4ccccc4)sc23)C1
4.29

Report inhibition for CN1CCc2ccc(NC(=O)Nc3ccc(-c4ccccc4)cc3)cc2C1
0.83

Report inhibition for CC(=O)Oc1c(Cl)c(C)nc(C)c1-c1ccc(Oc2ccc(OC(F)(F)F)cc2)cc1
3.09

Report inhibition for COc1ccc(OC)c(CC2c3ccc(Br)c(O)c3CCN2C)c1 (stereo not given)
1.41

Report inhibition for Cc1cc(NC(=O)c2coc3cc(F)c(N4CC(C)N(C)C(C)C4)cc23)ccc1-n1ccnc1 (stereo not given)
1.16

Report inhibition for COc1ccc(-c2ccc(NC(=O)c3cccs3)cc2)cc1CN1CCCN(C)CC1
3.15

Report inhibition for Cc1nc2ccccn2c1C1(O)C(=O)Nc2c(Cl)cc(Cl)cc21 (stereo not given)
4.95

Report inhibition for Nc1ncc(-c2ccccc2)cc1/C=C/c1cccnc1
-2.47

Report inhibition for CC(=O)N(C)c1cccc(C(=O)Nc2cccc(-c3ccc(-c4nc5cc(C(F)(F)F)ccc5[nH]4)cc3)c2)c1
4.03

Report inhibition for O=C(Nc1nccs1)c1sc2ccccc2c1O
2.26

Report inhibition for CC(C)CCN1CCC(Oc2cccc(NC(=O)c3ccc(C(F)(F)F)cc3)c2)CC1
-0.13

Report inhibition for COc1ccc(CNCc2ccc(-c3cccc(-c4nc5cc(C(F)(F)F)ccc5[nH]4)c3)cc2)cc1
-0.35

Report inhibition for Nc1ccc(-c2ccc3ccnc(N)c3c2)cc1
-0.79

Report inhibition for O=C(Cc1c[nH]cn1)Nc1cccc(-c2cccc(-c3nc4cc(F)ccc4[nH]3)c2)c1
-0.43

Report inhibition for COc1ccccc1-n1c(SCC(=O)c2ccc3c(c2)CC(=O)N3C)nnc1-c1cccs1
35.2

Report inhibition for Cc1cc(C(F)(F)F)n2nc(C3CCN(Cc4cc(C)c(O)c(C)c4)C3)cc2n1 (stereo not given)
3.54

Report inhibition for OC(CNCc1ccccc1Oc1ccccc1)c1cccc(C(F)(F)F)c1 (stereo not given)
2.2

Report inhibition for COc1cc(Cc2cnc(N)nc2N)cc(OCc2cccc(C(=O)O)c2)c1OC
-2

Report inhibition for Nc1cccc(CNCc2cccc(-c3ccc(-c4nc5ccccc5[nH]4)s3)c2)c1
8.55

Report inhibition for O=C(/C=C/c1ccc(Cl)c(Cl)c1)NCCCCCN1CCC(NS(=O)(=O)c2cc(Cl)cc(Cl)c2)CC1
3.03
